# AUC(0-inf) values compiled below
# Test details: Mouse PK, IV and PO
# Experimental parameters: in vivo, PO dose 30 mg/kg, 20% Captisol (aq), fed, read-out: PK-Mouse: PO AUCinf
Express your answer in µg·h/mL, writing the number without its unit.

Query :: Request the reported AUC(0-inf) associated with Cc1cc([C@@H](C)Nc2ccc(Cl)nc2C(=O)NS(C)(=O)=O)c2nc(N3Cc4ccc(F)cc4C3)n(C)c(=O)c2c1
Result :: 548

Continuing:
Query :: Request the reported AUC(0-inf) associated with Cc1cc([C@@H](C)Nc2ccc(Cl)nc2C(=O)O)c2nc(N3Cc4ccc(F)cc4C3)n(C)c(=O)c2c1 [Compound 1 acid derivative, reference compound]
Result :: 8.85
